Experiment: yeast display, Sf9 membrane polyspecificity reagent, FACS + sequencing; frameworks hold sequencing errors
Measure name: polyreactivity (PSR sort gate)

Ordered residues	Measure name	Measured value
QVQLVESGGALFQAGGSLRLSCAASGIIFGVYAMGWYRQAPVKERELVASITWGGGSTYYADSVKGRFTISRDNAKNTVYLQMNSLKPEDTAVYYCNKRGYPGYDWGQGTQVTVSS	polyreactivity (PSR sort gate)	low polyreactivity
QVQLVESGGGLVQAGGSLRLSCAASGRIFLNYAMGWYRQAPGKERELDAAISRRGASTYYADSVKGRFTISRENAKNTVYLQMNSLKPEDTAVYYCATVPGKSGDYWGLGTQVTVSS	polyreactivity (PSR sort gate)	high polyreactivity
QDQLVESGGGLVQAGGSLRISCAASGSTFIYNAMGWYRQAPGKERELVATITGRGSTYYAYSVKGRFTISRDNAKNTVYLQLNSLKPEDTAVYYCAATIFNSFYWRYGYWGQGSQVTVSS	polyreactivity (PSR sort gate)	low polyreactivity
QVLLQESGGLVQAGCSLRMSCAASGSISTALSMGWYRQAPGKERELVSTISDGASTNYADSVKGRFTISRVNAKNTVYLQMNSLKPEDTAVYYCARYYFGNFGWGQGTQVTVSS	polyreactivity (PSR sort gate)	high polyreactivity
QVQLVESGGGLVQAGGSLRLSCAASGSTYIDYAMGWYRQAPGKERELVASIRYSGGGTYYADSVKGRFTISRDNAKNTVYFQMNSLKPEDTAVYYCAKDTHLLNEHSGTSREYDYWGQGTQVTVSS	polyreactivity (PSR sort gate)	low polyreactivity

###

Experiment: yeast display, Sf9 membrane polyspecificity reagent, FACS + sequencing; frameworks hold sequencing errors
Measure name: polyreactivity (PSR sort gate)

> print(dat)
                           ordered.residues      measured.value
1  QVQLVESGGGLVQAGGSLRLSCAASGRIFRSIAMGWYRQSPGKERELVAVINSDDSTYYADSVKGRFTISRDNAKNTVYLQMNSLKPEDTAVYYCAAEPQYTRHMDSWGQGTQVTVSS  low polyreactivity
2  QVQLVESGGGLVQAGGSLRISCAASGSTFRRYPIGWYRQAPGKEREFVAVITSSGVITYYADSVKGRFTISRDNAKNTVYLQMNSLKPEDTAVYYCATDARSMDYWGQGTQVTVSS  low polyreactivity

###

Assay: yeast display, Sf9 membrane polyspecificity reagent, FACS + sequencing; frameworks hold sequencing errors
Measure name: polyreactivity (PSR sort gate)

Ordered residues	Measure name	Measured value
QVQLVESGGGLVQAGGSLRLSCAASGSTFPTYAMGWYRQAPGKERELVAAITRGGSTYYADSVKGRFTISRDNAKNTVYLQMHSRKPEDTSVYYCAVYEFLGQIGKRDYWGQGTQVTVSS	polyreactivity (PSR sort gate)	low polyreactivity
QVQRVESAGGLVQARGSLRLSCAASGRIFYYNAMGWYRQAPGKEREFVAAITSVGSTNYADSVKGLFTISRDNAKNTVYLQMNSLKPEDTAVYYCARASAWYVTLVGKYTKYDYWGQGTQVTVSS	polyreactivity (PSR sort gate)	low polyreactivity

###

Test: yeast display, Sf9 membrane polyspecificity reagent, FACS + sequencing; frameworks hold sequencing errors

Ordered residues	polyreactivity (PSR sort gate)
QVQLVESGGGLVHAGGSLRLSCASSGSIFIRNAMGWYRQAPGKERELVASISRSGASTRYADSVKGLFTISRDNAKNTVYLQMNSLNPEDTAVYYCNDVIRRYFVPSSYDYWGQGTQVTVSS	high polyreactivity
QVQIVESGGGLVQAGGSHRLSCAASGSTFDAYAMGWYRQEPGKEREMVAAISTRGGRTYYADSVKGRFTISRDNAKNTVYLQMNSLKPEDTAVYYCNAVVARVNVRGTPAFDYWGQGTQVTVSS	high polyreactivity
QFQLVESGGGLVQAGGSLRLSCAASGLIFTANAMGWYRQAPGKERELVASITWSGDSTYYADSVKGRFTISRDNAKNTVYLQMNSLKPEDSAVYYCNARPVYTYVTYDGNYWGQGTQVTVSS	low polyreactivity
QVQLVESGGGLVQAGGSLRLSCAASGFTFDWNAMGWYRQAPGKERELVAAISSSTGRTYYADSVKGRFTISRDNAKNTVYLQMNSLKPEDTAVYYCAASLGGYGERYYYWGQGTQVTVSS	high polyreactivity
QVQLVESGGGLVQAGGSLRLSCAASGFIFTSYAMGWYRQAPGKERELVAAIDYSGGSTYYADSVKGRFTISRDNAKNTVYLQMNSLKPEDTAVYYCAAGDGLWPGSQTYDYWGQGTQVTVSS	low polyreactivity
QVQLVESGGGLVQAGGSLRLSCAASGSIFDDNAMGWYRQAPGKERELVAAITSTDSTNYADSVKGRFTISRDNAKNPVYLQMNSLKPEDTAVYYCNAESLGWYRLYTVDYWGQGTQVTVSS	low polyreactivity
QVQHVESVGGLVQAGGSLPLSGASSGFIFRKNAMGWYRQATGKEREFVAAISRRGGCTYYADSVKGRFTISRDNAKNTVYLQMNSLKPEDTAVYYCNAELYDVGSHEYDYWVQGTQVTVSS	high polyreactivity
HVQLVESGGGLVQAGGSLRLSCAASGFTFPANAMGWYRQAPGKERELVAAISSSGGTYYADSVMGRFTISRDNAKNTVYLQMTSLKQEDTAVYYCAAYRFKYYYWGQGTQVSVSS	high polyreactivity
QVQLVESGGGLVQAGGSLRLSCAASGRIFYLYTMGWYRQAPGKEREFSTYYADSVKGRFTISRDNAKNTVYLQMNSLKPEDTAVYYCNKGSDGFTTGEGDYWGQGTQVTVSS	low polyreactivity
QVQLVESGGGLVQAGGSLRLSCAASGSIFSGNAMGWYRQAPGKERELVAAISRNGGSTYYADSVKGRFTISRDNAMNTVYLQMISLKPEDTAVYYCAASWYRRKIYYSWGQGTQVTVSS	high polyreactivity
QVQLVESGGGLVQAGGSLRLSCAASGYIFVYNAMGWYRQAPGKERELVAAITDGGGSTYADSVKGRFTISRDNAKNTVYLQMNSLKPEDTAVYYCAARYSDTTWYVLYYYWGQGTQVTVSS	low polyreactivity
